- experimental_system: T1, Anti-PSMA Fab (SEQ ID NOs: 19, 20)
- T1 construct: Biotinylated and captured on neutravidin coated plates in the phage ELISA; also called 006 PSMA Fab
- procedure_text: phage binding ELISA on captured PSMA Fab; competitor PSMA antigen pre-incubated in the well
Where no end group is shown, it is not given here.
Quick list: Anti-PSMA Fab signal in the presence of PSMA per entry.
outcome_measure: Anti-PSMA Fab signal in the presence of PSMA

binder	obs_value
FEKWCTPAWMCAGW (cysteine pairing not given here; also: fused to phage pIII, sequence and linker not given here, Peptide-180 library clone, tested as clonal phage supernatant; not shown: pIII of the bacteriophage to which the peptide is fused) [Phage-1894]	0.0792
AEKWCFPAWMCERP (cysteine pairing not given here; also: fused to phage pIII, sequence and linker not given here, Peptide-180 library clone, tested as clonal phage supernatant; not shown: pIII of the bacteriophage to which the peptide is fused) [Phage-1898]	0.0803
VPKLCTPVWMCTGF (cysteine pairing not given here; also: fused to phage pIII, sequence and linker not given here, Peptide-180 library clone, tested as clonal phage supernatant; not shown: pIII of the bacteriophage to which the peptide is fused) [Phage-1892]	0.0783
TDMWCTPMWMCMGF (cysteine pairing not given here; also: displayed as fusion to phage pIII, Peptide-180 library clone, tested as clonal phage supernatant; not shown: pIII of the bacteriophage to which the peptide is fused) [Phage-1901]	0.0829
IDMRCTPNWMCIGF (cysteine pairing not given here; also: displayed as fusion to phage pIII, Peptide-180 library clone, tested as clonal phage supernatant; not shown: pIII of the bacteriophage to which the peptide is fused) [Phage-1903]	0.081
MEKLCIPAWMCDGM (cysteine pairing not given here; also: fused to phage pIII, sequence and linker not given here, Peptide-180 library clone, tested as clonal phage supernatant; not shown: pIII of the bacteriophage to which the peptide is fused) [Phage-1897]	0.279
EIRLCTPSWMCMGF (cysteine pairing not given here; also: displayed as fusion to phage pIII, Peptide-180 library clone, tested as clonal phage supernatant; not shown: pIII of the bacteriophage to which the peptide is fused) [Phage-1905]	0.0792
WEKMCVPSWMCHFS (cysteine pairing not given here; also: fused to phage pIII, sequence and linker not given here, Peptide-180 library clone, tested as clonal phage supernatant; not shown: pIII of the bacteriophage to which the peptide is fused) [Phage-1895]	0.0735
LIPWCIPAWMCTSD (cysteine pairing not given here; also: displayed as fusion to phage pIII, Peptide-180 library clone, tested as clonal phage supernatant; not shown: pIII of the bacteriophage to which the peptide is fused) [Phage-1902]	0.0863
